Each recorded value in this set is attributed to patent US7456167B2.

System: HCV replicon cells
experiment_summary: HCV replicon FRET assay
Assay type: cell-based
details: Hepatitis C virus; HCV replicon cells; FRET assay; read-out: EC50
parameter_measured: EC50

Solved entries:
compound="CCS(=O)(=O)C1Cc2ccccc2-c2c(C3CCCCC3)c3ccc(C(=O)NS(=O)(=O)N(C)C)cc3n2C1 (stereo not shown)" test_target="HCV replicon cells" observed_result="20 to 1000 nM"
compound="COC(=O)c1ccc2c(C3CCCCC3)c3n(c2c1)CC1(S(=O)(=O)O)CC1c1cc(OC)ccc1-3 (stereo not shown)" test_target="HCV replicon cells" observed_result="> 1000 nM"
compound="COc1ccc2c(c1)C1CC1(S(=O)(=O)N(C)C)Cn1c-2c(C2CCCCC2)c2ccc(C(=O)O)cc21 (stereo not shown)" test_target="HCV replicon cells" observed_result="20 to 1000 nM"

We next turn to a different compound, shown below.
QUERY: Requested field: EC50. Item: COc1ccc2c(c1)C1CC1(S(=O)(=O)N1C3CC1CN(C)C3)Cn1c-2c(C2CCCCC2)c2ccc(C(=O)NS(=O)(=O)C(C)C)cc21 (stereo not shown)
RESULT: 20 to 1000 nM

###

Tested on: HCV replicon cells
experiment_summary: HCV replicon FRET assay
Format: cell-based
details: Hepatitis C virus
parameter_measured: EC50

As a guide, the following entries are already answered.
compound="COc1ccc2c(c1)C1CC1(S(=O)(=O)N1C3CCC1CN(C)C3)Cn1c-2c(C2CCCCC2)c2ccc(C(=O)NS(=O)(=O)N(C)C)cc21 (stereo not drawn)" parameter_measured=EC50 observed_result="0.02 to 1 µM"
compound="COc1ccc2c(c1)C1CC1(S(=O)(=O)N1C3CCC1CC3)Cn1c-2c(C2CCCCC2)c2ccc(C(=O)NS(=O)(=O)C(C)C)cc21 (stereo not drawn)" parameter_measured=EC50 observed_result="0.02 to 1 µM"

Please turn your attention to the following entry.
QUERY: Look up EC50 with HCV replicon cells for this compound: COc1ccc2c(c1)C1CC1(S(=O)(=O)N1C3CCC1CC(C)(O)C3)Cn1c-2c(C2CCCCC2)c2ccc(C(=O)NS(=O)(=O)C(C)C)cc21 (stereo not drawn)
RESULT: 0.02 to 1 µM

###

test_target: HCV NS5B RdRp genotype 1b (Hepatitis C virus genotype 1b, UniProt Q9WMX2)
Construct: The protein was expressed with an 18 amino acid C-terminal truncation to enhance the solubility; made in house; host or cells: E. coli BL21(DE3)
Sequence (Q9WMX2 2420-2992): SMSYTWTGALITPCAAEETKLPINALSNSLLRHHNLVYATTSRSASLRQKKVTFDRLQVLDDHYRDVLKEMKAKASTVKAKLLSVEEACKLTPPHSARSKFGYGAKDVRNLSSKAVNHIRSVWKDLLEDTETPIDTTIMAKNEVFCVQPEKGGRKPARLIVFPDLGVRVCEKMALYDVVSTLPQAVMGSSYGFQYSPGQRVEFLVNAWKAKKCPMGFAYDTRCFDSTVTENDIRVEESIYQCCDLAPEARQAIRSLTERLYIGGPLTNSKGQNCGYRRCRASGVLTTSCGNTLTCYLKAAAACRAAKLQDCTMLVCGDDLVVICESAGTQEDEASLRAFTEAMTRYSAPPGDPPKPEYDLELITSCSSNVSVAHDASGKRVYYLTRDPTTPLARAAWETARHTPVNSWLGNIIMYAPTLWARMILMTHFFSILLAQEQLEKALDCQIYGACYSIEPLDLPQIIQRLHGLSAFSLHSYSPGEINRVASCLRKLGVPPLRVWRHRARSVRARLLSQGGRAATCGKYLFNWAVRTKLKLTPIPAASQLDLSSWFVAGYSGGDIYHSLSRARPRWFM
experiment_summary: Modified HCV NS5B RdRp enzyme assay (preincubation protocol)
Format: biochemical
details: HCV NS5B RdRp genotype 1b; preincubation protocol; read-out: IC50
pIC50: −log10 of the molar value.
Please respond with reported pIC50 for every item in the list.

Recorded pIC50, per entry:
compound="COc1ccc2c(c1)C1CC1(S(=O)(=O)N1CCN3CCC1CC3)Cn1c-2c(C2CCCCC2)c2ccc(C(=O)NS(=O)(=O)N3CCOCC3)cc21 (stereo not drawn)" test_target="HCV NS5B RdRp genotype 1b (Hepatitis C virus genotype 1b, UniProt Q9WMX2)" parameter_measured=pIC50 observed_result="6.00 to 7.70"
compound="COc1ccc2c(c1)C1CC1(S(=O)(=O)N1CCCN(C)CC1)Cn1c-2c(C2CCCCC2)c2ccc(C(=O)O)cc21 (stereo not drawn)" test_target="HCV NS5B RdRp genotype 1b (Hepatitis C virus genotype 1b, UniProt Q9WMX2)" parameter_measured=pIC50 observed_result="6.00 to 7.70"
compound="COc1ccc2c(c1)C1CC1(S(=O)(=O)N1CCC[C@H]3CN(Cc4ccccc4)C[C@H]31)Cn1c-2c(C2CCCCC2)c2ccc(C(=O)NS(=O)(=O)N3CCOCC3)cc21 (stereo partly drawn)" test_target="HCV NS5B RdRp genotype 1b (Hepatitis C virus genotype 1b, UniProt Q9WMX2)" parameter_measured=pIC50 observed_result="6.00 to 7.70"
compound="CCN(C)S(=O)(=O)NC(=O)c1ccc2c(C3CCCCC3)c3n(c2c1)CC1(S(=O)(=O)N2C[C@@H](C)N(C)[C@@H](C)C2)CC1c1cc(OC)ccc1-3 (stereo partly drawn)" test_target="HCV NS5B RdRp genotype 1b (Hepatitis C virus genotype 1b, UniProt Q9WMX2)" parameter_measured=pIC50 observed_result="6.00 to 7.70"
compound="COc1ccc2c(c1)C1CC1(S(=O)(=O)N1CCN3CCCC3C1)Cn1c-2c(C2CCCCC2)c2ccc(C(=O)NS(=O)(=O)N(C)C)cc21 (stereo not drawn)" test_target="HCV NS5B RdRp genotype 1b (Hepatitis C virus genotype 1b, UniProt Q9WMX2)" parameter_measured=pIC50 observed_result="6.00 to 7.70"
compound="COc1ccc2c(c1)C1CC1(S(=O)(=O)N1C[C@@H](C)N(C)[C@@H](C)C1)Cn1c-2c(C2CCCCC2)c2ccc(C(=O)NS(=O)(=O)N3CCN(C)CC3)cc21 (stereo partly drawn)" test_target="HCV NS5B RdRp genotype 1b (Hepatitis C virus genotype 1b, UniProt Q9WMX2)" parameter_measured=pIC50 observed_result="6.00 to 7.70"

Each compound below has a reported value. Please supply its pIC50.
1. COc1ccc2c(c1)C1CC1(S(=O)(=O)N1CCCC1)Cn1c-2c(C2CCCCC2)c2ccc(C(=O)NS(=O)(=O)C(C)C)cc21 (stereo not drawn)
2. COc1ccc2c(c1)C1CC1(S(=O)(=O)N(C)C)Cn1c-2c(C2CCCCC2)c2ccc(C(=O)NS(=O)(=O)N(C)C)cc21 (stereo not drawn)
3. COc1ccc2c(c1)C1CC1(S(=O)(=O)N(C)CCN(C)C)Cn1c-2c(C2CCCCC2)c2ccc(C(=O)NS(=O)(=O)N(C)C)cc21 (stereo not drawn)
4. COc1ccc2c(c1)C1CC1(S(=O)(=O)N1CCN3CCC1CC3)Cn1c-2c(C2CCCCC2)c2ccc(C(=O)NS(=O)(=O)N(C)C)cc21 (stereo not drawn)
5. COc1ccc2c(c1)C1CC1(S(=O)(=O)N1CCOCC1)Cn1c-2c(C2CCCCC2)c2ccc(C(=O)NS(=O)(=O)N(C)C)cc21 (stereo not drawn)
6. COc1ccc2c(c1)C1CC1(S(=O)(=O)N1C[C@@H](C)O[C@@H](C)C1)Cn1c-2c(C2CCCCC2)c2ccc(C(=O)O)cc21 (stereo partly drawn)

RESULT:
1. 6.00 to 7.70
2. 6.00 to 7.70
3. 6.00 to 7.70
4. 6.00 to 7.70
5. 6.00 to 7.70
6. 6.00 to 7.70

I would be grateful if you could provide pIC50 for each of the following entries.
1. COC[C@@H]1CN(S(=O)(=O)C23CC2c2cc(OC)ccc2-c2c(C4CCCCC4)c4ccc(C(=O)NS(=O)(=O)C(C)C)cc4n2C3)CCO1 (stereo partly drawn)
2. CCS(=O)(=O)NC(=O)c1ccc2c(C3CCCCC3)c3n(c2c1)CC1(S(=O)(=O)N2C[C@@H](C)N(C)[C@@H](C)C2)CC1c1cc(OC)ccc1-3 (stereo partly drawn)
3. COc1ccc2c(c1)C1CC1(S(=O)(=O)N1CC(C)(O)C1)Cn1c-2c(C2CCCCC2)c2ccc(C(=O)O)cc21 (stereo not drawn)
4. COc1ccc2c(c1)C1CC1(S(=O)(=O)N1C[C@@H](C)O[C@@H](C)C1)Cn1c-2c(C2CCCCC2)c2ccc(C(=O)NS(=O)(=O)N(C)C)cc21 (stereo partly drawn)

RESULT:
["6.00 to 7.70", "6.00 to 7.70", "6.00 to 7.70", "6.00 to 7.70"]

Each compound below has a reported value. Please supply its pIC50.
1. COc1ccc2c(c1)CC(S(=O)(=O)N1CCOCC1)Cn1c-2c(C2CCCCC2)c2ccc(C(=O)NS(=O)(=O)N(C)C)cc21 (stereo not drawn)
2. COc1ccc2c(c1)C1CC1(S(=O)(=O)N1CCN(C)CC1)Cn1c-2c(C2CCCCC2)c2ccc(C(=O)NS(=O)(=O)N(C)C)cc21 (stereo not drawn)
3. COc1ccc2c(c1)C=C(S(=O)(=O)N1CCOCC1)Cn1c-2c(C2CCCCC2)c2ccc(C(=O)NS(=O)(=O)N(C)C)cc21

RESULT:
1. 6.00 to 7.70
2. 6.00 to 7.70
3. 6.00 to 7.70

For each of the items listed, what is its pIC50?
1. COc1ccc2c(c1)C1CC1(S(=O)(=O)N1CCN3CCC1CC3)Cn1c-2c(C2CCCCC2)c2ccc(C(=O)NS(=O)(=O)C(C)C)cc21 (stereo not drawn)
2. COc1ccc2c(c1)C=C(S(=O)(=O)N1CCN(C)CC1)Cn1c-2c(C2CCCCC2)c2ccc(C(=O)NS(=O)(=O)N(C)C)cc21
3. COc1ccc2c(c1)C1CC1(S(=O)(=O)N1CC(O)C1)Cn1c-2c(C2CCCCC2)c2ccc(C(=O)O)cc21 (stereo not drawn)
4. COc1ccc2c(c1)C1CC1(S(=O)(=O)N1CCN3CCCC3C1)Cn1c-2c(C2CCCCC2)c2ccc(C(=O)NS(=O)(=O)N3CCOCC3)cc21 (stereo not drawn) [drawing 65]
5. CCN1CC2CC1CN2S(=O)(=O)C12CC1c1cc(OC)ccc1-c1c(C3CCCCC3)c3ccc(C(=O)NS(=O)(=O)N(C)C)cc3n1C2 (stereo not drawn)
6. COC(=O)c1ccc2c(C3CCCCC3)c3n(c2c1)CC1(S(=O)(=O)O)CC1c1cc(OC)ccc1-3 (stereo not drawn)
7. COc1ccc2c(c1)C1CC1(S(=O)(=O)N1C[C@@H](C)N(C)[C@@H](C)C1)Cn1c-2c(C2CCCCC2)c2ccc(C(=O)NS(=O)(=O)C(C)C)cc21 (stereo partly drawn)

RESULT:
1. 6.00 to 7.70
2. 6.00 to 7.70
3. 6.00 to 7.70
4. 6.00 to 7.70
5. 6.00 to 7.70
6. 6.00 to 7.15
7. 6.00 to 7.70

QUERY: Look up pIC50: COc1ccc2c(c1)C1CC1(S(=O)(=O)N1C3CC1CN(C)C3)Cn1c-2c(C2CCCCC2)c2ccc(C(=O)NS(=O)(=O)C3CC3)cc21 (stereo not drawn)
RESULT: 6.00 to 7.70
